// provenance: the supplement of paper PMC9942255

System: Bacillus subtilis DB104 (SP-AmyQ fusion secretion)
Assay: AmyQ secretion efficiency, weighted average sort bin (1 = best secretion, 10 = worst) (bin number (weighted average, 1-10)); higher = lower secretion efficiency
Each entry falls in a class defined on AmyQ secretion efficiency; the bands are low value = under 3, medium value = from 3 up to 6, high value = 6 and over

MRNLTKTSLLLAGLCTAAIMVFVIHASAEES :: medium value
MRSKKLWISLLFALTLIFTMAFSNMSAQWAGK :: high value
MKRFILVLSFLSIIVLVTSASSFLAYPIQTNASPM :: medium value

Q) Any idea which band `MRNLTKTSLLLAGLCTAAQMVFVTHASSEES` is in?
A) medium value

Q) Any idea which band `MKVPKTMLKRTAAGLLLSLTATSVSAHYV` is in?
A) medium value

Q) Any idea which band `MKRLLSTLLIGITFAPSAFAKQD` is in?
A) low value

Q) Any idea which band `MKSSSSALLLLLFAFEPSASGKKL` is in?
A) high value

Q) Any idea which band `MKKELLASLVLCLSLSPLVSTNEVFAAEE` is in?
A) low value

Q) Any idea which band `MLKRTSFVSSGKYTTAVLLSILLPSGQAHAQSA` is in?
A) low value

Q) Any idea which band `MHLIRAAGAVCLAVVLIAGCRFNEDQHQAEEENT` is in?
A) medium value

Q) Any idea which band `MKRSISIFITCLLITLLTMGGMIASPRSAAGT` is in?
A) low value

Q) Any idea which band `MKKKRMSFVAVAALSTTAFGAHASAKEI` is in?
A) medium value

Q) Any idea which band `MKRKLLSSLAISALSLGLLVSGPTTSFAAES` is in?
A) medium value

Q) Any idea which band `MKKAFILSAAAAVGLFTFDDDQQASAKEL` is in?
A) low value

Q) Any idea which band `MKKLLAAGIIGLLTVSIASPTFAAEK` is in?
A) low value

Q) Any idea which band `MLSMNLWISLLFALTLIFTMAFSNMSAQAAGK` is in?
A) low value

Q) Any idea which band `MSGTCSIVCLWILVLLLSCLSGKSAYAATS` is in?
A) medium value

Q) Any idea which band `MKRKLKKSLAISALSLGLLVSAPTASFAAES` is in?
A) medium value

Q) Any idea which band `MSSTITFVLTMCFLGLILFVPTALADNS` is in?
A) low value

---

Test system: Bacillus subtilis DB104 (SP-AmyQ fusion secretion)
Assay: AmyQ secretion efficiency, weighted average sort bin (1 = best secretion, 10 = worst) (bin number (weighted average, 1-10)); higher = lower secretion efficiency
Here the recorded AmyQ secretion efficiency is given for each entry.
Enter a number only.

MRKKHKTISLLIIFLLASAVLAKPIEAHTV :: 2.55
MKKRFRRRKKRAFILFAGAIAIPS :: 6.13
MKRLLSTLLIGIMLLTFAPSAFAAQK :: 1.73
MNLRKILLSSALSLGMLVSAAPVLHTSS :: 6.17

Moving on to another sequence below.
Q) Kindly state the measured AmyQ secretion efficiency obtained for `MKKAFLVFLSVVLVTTVFLFVKQQESVAQAKQL` with Bacillus subtilis DB104 (SP-AmyQ fusion secretion).
A) 2.31

---

Here the recorded AmyQ secretion efficiency is given for each entry.
Tested on: Bacillus subtilis DB104 (SP-AmyQ fusion secretion)
Test: AmyQ secretion efficiency, weighted average sort bin (1 = best secretion, 10 = worst) (bin number (weighted average, 1-10)); higher = lower secretion efficiency
Enter a number only.

MLKKVKRAAFILVGSTLGAFSFSSDASAKHV :: 1.33
MFQFAITLSVLCALILLVPTLLVIPFQHNKEAGASV :: 6.31
MKMKSGMEQAVSVLLLLSRLPVQASLTRK :: 7.01
MKKWIYVVLVLSIAGIGGPSVHAASS :: 2.74
MRKKLKWLSFLLGFIILLFLFFFIALIVLAKYQFSNNDS :: 6.41
MITAAAVLLSLGLVFGFSYGAGHVAEAKTK :: 3.09
MRKYTVRRKRKRSFLSVLSGGHHESKAFPV :: 7.56
MRPVFPLILIAVLFLFCFSFGARQTEASASKR :: 2.07

Q) What AmyQ secretion efficiency value was documented for this sequence, `MKWMCSICCAAVLLAGGAAQHEAV` ?
A) 8.16

Q) What AmyQ secretion efficiency value was documented for this sequence, `MHLIRAAGAVCLAVVLIAGCREAEGENT` ?
A) 4.69

Q) What AmyQ secretion efficiency value was documented for this sequence, `MRGKSAVLLSLIMLIAGFLIWFSFQM` ?
A) 7.55

Q) What AmyQ secretion efficiency value was documented for this sequence, `MKKWMAGLFLAAAVLLCLMVPQQYQGASS` ?
A) 6.35

Q) What AmyQ secretion efficiency value was documented for this sequence, `MKQRKRVSALTPSTTLAITAKAKEL` ?
A) 7.26

---

Here the recorded AmyQ secretion efficiency is given for each entry.
Tested on: Bacillus subtilis DB104 (SP-AmyQ fusion secretion)
Assay: AmyQ secretion efficiency, weighted average sort bin (1 = best secretion, 10 = worst) (bin number (weighted average, 1-10)); higher = lower secretion efficiency

Consider the worked cases shown below.
MRPVFPLILSAVLFLSCFFGARQTEASFSKR :: 2.95
MNFKKTVVSALSISALALEPSGVASAHEI :: 2.95
MRKKRNVITCVMAASLTLGSLLPAGYASAKED :: 3.03
MLNGIISFLLVSFVLFFALSTGITGVQAAPA :: 3.09

Moving on to another sequence below.
Q) What AmyQ secretion efficiency value was documented for this sequence, `MKWMCSICCAAVLLAGGAQQAEAV` ?
A) 2.93

---

Here the recorded AmyQ secretion efficiency is given for each entry.
Test system: Bacillus subtilis DB104 (SP-AmyQ fusion secretion)
Experiment: AmyQ secretion efficiency, weighted average sort bin (1 = best secretion, 10 = worst) (bin number (weighted average, 1-10)); higher = lower secretion efficiency
Enter a number only.

MRKKCSVCLWILVLLLSCKKRKKRAYAATS :: 6.88
MKLKSKLLLMCLALLIVFVGATTIANAPTH :: 8.04
MKRLLSTLLIGIMLLFFAGVAFAKQD :: 3.63
MPIKKKVMMCLAVTLVFGSMDEETLTNSGGFKE :: 6.94
MNKLKRLSMSKSRGYSVFIFSSHALAAQY :: 6.58
MRKTIFAFLTGLMMFGTITAASKSPD :: 6
MSIWIVLFLVLIAAAISIFVYVSTGSEK :: 6.85
MFKKHTISLLIIFLLASAVLAKPIEADEE :: 3.49
MRNLTKTSLLLAGLCTAAQMVFVTHISAEES :: 3.9
MKKQIITATTAVVLGSTGAASAQSI :: 4.95

Q) What AmyQ secretion efficiency value was documented for this sequence, `MKKKMLNLFLAAGLTASAIVGTTLVVTPAEAATI` ?
A) 4.26

Q) What AmyQ secretion efficiency value was documented for this sequence, `MKLKKRVSMFLVALTMCGGLFVITVFTAVFTPAKAVKT` ?
A) 7.26

Q) What AmyQ secretion efficiency value was documented for this sequence, `MTIIIAIIAAVIVIAALITFNVRNASPG` ?
A) 7.45

Q) What AmyQ secretion efficiency value was documented for this sequence, `MKRFSTAYLLLGILCSAAVFLILSAGAPSRALGAEV` ?
A) 3

Q) What AmyQ secretion efficiency value was documented for this sequence, `MKKRLIAPMLLSAASLAFFAMSGSAQCAAY` ?
A) 6

Q) What AmyQ secretion efficiency value was documented for this sequence, `MRMLWRSLALCGLALTLAPCAQAAKK` ?
A) 2.93

Q) What AmyQ secretion efficiency value was documented for this sequence, `MLCVMMLLFSAIASFPVSAQCKDQ` ?
A) 6.94

Q) What AmyQ secretion efficiency value was documented for this sequence, `MKKLSLGVASAALGLALVGGGTWAAFN` ?
A) 6

---

Tested on: Bacillus subtilis DB104 (SP-AmyQ fusion secretion)
Test: AmyQ secretion efficiency, weighted average sort bin (1 = best secretion, 10 = worst) (bin number (weighted average, 1-10)); higher = lower secretion efficiency
reported_endpoint: AmyQ secretion efficiency
Enter a number only.

Consider the worked cases shown below.
MIAYFGKCRKRRTIMFLGVLFGMQQANHG :: 4.01
MKKRLIAPMLLIAAILAFFAMSGSAQAAAY :: 2.47
MSLNKRVSMFLVALTMCGGLFVTPAKAVKT :: 2.92
MTMLRKIIGWILLLCPLFAFTVIASGKEV :: 8.01
MTKRYGQTKTYKGTTTTAVLAAVFYLTDEDQAAAV :: 6.8

Q) What AmyQ secretion efficiency value was documented for this sequence, `MIAYFGKCRKTRTIMFLGVLFGMQQANHG` ?
A) 3.14

Q) What AmyQ secretion efficiency value was documented for this sequence, `MKRLTLVCSIVFILEDLFYDLDIGTIPIQDLPVYEASAKTA` ?
A) 7.06

Q) What AmyQ secretion efficiency value was documented for this sequence, `MAIIIAIIAAVIVIAALITFNVRNVSPG` ?
A) 8.03

Q) What AmyQ secretion efficiency value was documented for this sequence, `MKKRLIAPMLLSAASLAFFAMSGSAQAAAE` ?
A) 2.56

Q) What AmyQ secretion efficiency value was documented for this sequence, `MKKLLAAGIIGLLTVSIASPSFAASD` ?
A) 2.22
